Taken from a melting point compilation (Tetko et al.; mined from patent text by program, amines drawn as free bases though some values may be those of a salt).

Task for the reader: assign each of the following molecules its reported melting point.

Give recorded melting point. COc1ccc(S(=O)(=O)C(CC(=O)NO)c2ccccc2)cc1 (centres undefined)
157 to 159 °C

Return melting point for the following molecule: `CN1CC=C(c2c[nH]c3ccc(NC(N)=S)cc23)CC1`
209 to 211 °C

Kindly indicate its recorded melting point. Item: `CNc1nc(Nc2ccc(Cl)c(Cl)c2)ncc1NC(C)=O`
267 °C

Look up and state reported melting point for `Cn1cc(C(=O)NCc2ccc(Cl)cc2)c(=O)c2cc(CCCO)sc21`
197 to 198 °C

###

Would you mind telling me the reported melting point of each entry?

Quickly give me recorded melting point for `Oc1nc2cc(Cl)cc(Cl)c2c(O)c1O`
270 to 273 °C

Indicate the recorded melting point value for this compound: `COCOc1cccc(NC(=O)OC(C)(C)C)c1I`
82 to 84 °C

Tell us which melting point value is on record for `CC(C)(C)C(=O)c1c(CC(C)(C)C(=O)O)n(Cc2ccc(Cl)cc2)c2ccc(OCc3ccc4sccc4n3)cc12`
193 to 194 °C

###

property.label: melting point

State, in one line, measured melting point of `CCc1nc2c(N)nc3ccccc3c2n1CCCC1(C)OCCO1`
195 to 196 °C

Name the recorded melting point of the item COC(=O)N(C(=O)c1ccc(C2=NOC(c3cc(Cl)cc(Cl)c3)(C(F)(F)F)C2)cc1C)c1cncnc1 (stereo not given) in your answer.
72 to 76 °C

Item `CN1C(=O)NC(=O)C1=Cc1cc(OCCCC(=O)N(C)C2CCCCC2)ccc1[N+](=O)[O-]` : provide melting point
149 to 154 °C

For the compound `c1ccc2c(c1)Cn1ccnc1CN2` , give its reported melting point.
164 to 170 °C

Let me know recorded melting point for O=C1c2ccc(OC3CC3)cc2CCC1CN1CCC(O)(c2ccccc2)CC1 (stereo not given) , thanks.
187 to 189 °C

###

Exercise: for every item that follows, state its recorded melting point.

Report melting point, nothing else, for this compound: `COC(=O)C(C)(C)c1ccc2cc(OC)ccc2c1`
97 to 98 °C

Report melting point for `C=CCNC(=O)N1CC(OCc2ccc(Cl)c(Cl)c2)C1`
88 to 89 °C

Recall and state the measured melting point for `COc1ccc(C(=O)Nc2ccccc2)cc1NS(=O)(=O)c1cn(C)cn1` .
250 to 252 °C

Look up melting point of `Cc1ccc(-c2c3c(cc4ccc(O)cc24)-c2ccc(O)cc2CO3)cc1F` and report it.
238 to 240 °C

###

Field: melting point. Provide a value for each of the compounds that follow.

Find the measured melting point of `CCCCNc1cc(C(=O)OCC#N)cc(S(N)(=O)=O)c1Oc1ccccc1` and report it.
159 to 161 °C

For the compound `O=C(Nc1ccc(-n2nc(C(F)(F)F)nc2Cl)cc1)c1ccncc1F` , report melting point.
167 to 170 °C

For the compound `CN(C)c1ccc([N+](=O)[O-])c(C(=O)NCC2CCN(C(c3ccccc3)c3ccccc3)CC2)c1` , report melting point.
200 °C

Look up and state reported melting point for `N#CC=C(N)c1ccc2ccccc2c1`
85 to 90 °C

Identify the reported melting point for the following entry. `Cc1ccc(NCC2CCN(C3CCOCC3)CC2)c(C(=O)Nc2ccc(Cl)cn2)c1`
178 to 182 °C

Name the recorded melting point of the item `O=C(O)c1ccc(C(=O)O)c(Cl)c1` in your answer.
313 °C

Report measured melting point; entry is CC1(C)C(N)CN1c1c(F)cc2c(=O)c(C(=O)O)cn(C3CC3)c2c1F (centres undefined)
214 to 216 °C

Give the value of melting point reported for the following: `CC(C)(C)OC(=O)Cn1c(-c2ccccn2)nc2cccnc21`
124 to 126 °C

Please indicate melting point recorded for `N#Cc1cccc(C(=O)Nc2c(Cl)cncc2Cl)c1`
242 to 244 °C
